Data origin, for the record: ChEMBL document CHEMBL1201862

Recorded measurements of GI50, one per entry
System: HCT-116
Assay: NCI tumour cell line growth inhibition, 48 h
Activity calls are given as the source filed them. No stated cut-off is given here; in the data, active = GI50 up to about 1.1 µM and inactive = higher.

compound: CCCCC/C=C1\CCC(CN2CCOCC2)C1=O (centres undefined)
assay_metric: GI50
result: 9.35 µM (inactive)

For this compound ( O=C(O)CCC1NC(/C(=C/c2ccccc2O)NC(=O)c2ccccc2)OC1=O (centres undefined) ), measured GI50 is 67.3 µM (inactive)

For this compound ( O=C(NCCc1ccc(F)cc1)c1cc(/C=C/c2cc(O)ccc2O)ccc1O ), measured GI50 is 1.95 µM (inactive)

For this compound ( CCN(CC)N1C(=O)[N-][N+](CC)(CC)C1=O ), measured GI50 is > 100 µM (inactive)
